Tested on: HEK293T
ASSAY_TEXT: Inhibition of human c-YFP fused CB1R/n-YFP fused 5HT2A receptor heterodimer formation expressed in HEK293T cells assessed as decrease in forskolin induced cAMP level preincubated for 15 mins forskolin and DOI stimulation and measured after 15 mins by HTRF assay
Type: cell-based
REPORTED_CONDITIONS: time 30.0 min
The source made the active and inactive calls. The calls are words filed in the database; no cut-off is given here. Square brackets hold non-standard residues; d marks the D form. Peptide text beside a SMILES is read from it.
Give one outcome, nothing more. List: yes (1) = active, no (0) = inactive

Use the examples below as a reference point.
1. COc1cccc([C@H](O)C2CCN(CCc3ccc(F)cc3)CC2)c1OC    no (0)
2. CC[C@@H](C)[C@@H](NC(=O)CNC(=O)[C@@H](C)NC(=O)[C@H](Cc1c[nH]c2ccccc12)NC(=O)[C@H](CC(C)C)NC(=O)[C@@H](NC(=O)[C@H](Cc1ccc(O)cc1)NC(=O)[C@H](CCSC)NC(=O)[C@H](Cc1ccc(O)cc1)NC(=O)[C@H](C)NC(=O)[C@H](Cc1ccc(O)cc1)NC(=O)[C@@H](N)C(C)C)[C@@H](C)CC)C(=O)N[C@H](CC(C)C)C(=O)N[C@H](CCCCN)C(=O)N[C@H](CCCNC(=N)N)C(=O)N[C@H](Cc1c[nH]c2ccccc12)C(N)=O (H-VYAYMYILW[dA]G[dI][dL][dK][dR][dW]-NH2)    yes (1)
3. Cc1c(C(=O)NN2CCCCC2)nn(-c2ccc(Cl)cc2Cl)c1-c1ccc(Cl)cc1    no (0)
4. CC[C@H](C)[C@H](NC(=O)[C@H](CC(C)C)NC(=O)[C@@H](NC(=O)[C@H](CC(C)C)NC(=O)[C@@H](NC(=O)[C@H](CCCCN)NC(=O)[C@@H](CCCCN)NC(=O)[C@@H](CO)NC(=O)[C@@H](CCCCN)NC(=O)[C@@H](CO)NC(=O)[C@@H](CCCCN)NC(=O)[C@H](N)CO)[C@@H](C)O)C(C)C)C(=O)N[C@@H](CC(C)C)C(=O)N[C@H](C(=O)N[C@H](C(N)=O)C(C)C)C(C)C (H-[dS][dK][dS][dK][dS][dK]KTLVLILVV-NH2)    yes (1)

Now let's try a different one.
Ask: Write down the call the test reported for this compound. Item: CC[C@H](C)[C@H](NC(=O)[C@H](Cc1ccc(O)cc1)NC(=O)[C@H](CCSC)NC(=O)[C@H](Cc1ccc(O)cc1)NC(=O)[C@H](C)NC(=O)[C@H](Cc1ccc(O)cc1)NC(=O)[C@@H](N)C(C)C)C(=O)N[C@@H](CC(C)C)C(=O)N[C@@H](Cc1c[nH]c2ccccc12)C(=O)N[C@H](CO)C(=O)N[C@H](CCCCN)C(=O)N[C@H](CO)C(=O)N[C@H](CCCCN)C(=O)N[C@H](CO)C(=O)N[C@H](CCCCN)C(N)=O (H-VYAYMYILW[dS][dK][dS][dK][dS][dK]-NH2)
Reply: yes (1)
